assay: growth suppression of PTEN-deleted HCT116, pilot screen, cell-based, HCT116 clonal line, CellTiter-Glo (AID 824); conditions: 60 h, at 10 µM, active compounds read low;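 further: 0% = 20 µM Hyamine control and 100% = vehicle cell control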
Inconclusive results are not listed.
The reader will find reported viability values listed item by item below.
Kindly answer with a numeric value in %, unit omitted.

compound: C=CCn1c(=N)c(C(=O)OCC)cc2c(=O)n3cc(C)ccc3nc21
assay.result: 87.4

compound: O=C(CCNS(=O)(=O)c1cccc2nonc12)NCCc1ccc(Cl)cc1
assay.result: 101

compound: O=C(O)CCCC(=O)N1CCc2cc(S(=O)(=O)N3CCc4ccccc43)ccc21
assay.result: 91.8

Continue with the compound presented below.
viability in this record for COc1ccc(C2=CC(c3ccc(Cl)cc3)n3cnnc3N2)cc1OC (centres undefined) : 87

###

assay: growth suppression of beta-catenin knockout HCT116, pilot screen, human colon tumor cells (AID 823); details: CellTiter-Glo, 60 h, at 10 µM, active compounds read low;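 further: 0% = wells killed by 20 µM Hyamine and 100% = untreated DMSO cell wells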
Results filed as inconclusive are left out.
measurement.type: viability (%)
Kindly answer with a numeric value in %, unit omitted.

Example entries begin here.
compound: COc1ccccc1N1CCN(C(=O)CCc2ccc(S(=O)(=O)NC(C)C)cc2)CC1
viability (%): 97.6
--
compound: CSC1=C(C#N)C(c2ccc(C(C)C)cc2)CC(=O)N1 (stereo unspecified)
viability (%): 99.6
--
compound: O=C(Cn1c(S(=O)(=O)Cc2ccccc2)nc2ccccc21)N1CCCCC1
viability (%): 107
--
compound: O=C(NCCNC(=O)c1ccc(Br)o1)c1ccc(Br)o1
viability (%): 99.1
--
compound: O=C(c1cc2ccccn2n1)N1CCN(c2ccccn2)CC1
viability (%): 103
--
compound: CCOC(=O)N1CCN(C(=O)CCSc2ccccc2)CC1
viability (%): 99.7
--
compound: Fc1cccc(Cl)c1CSc1nnnn1-c1ccc2c(c1)OCO2
viability (%): 55.7
--
compound: Cc1cc(NC(=O)CSc2cn(CCNC(=O)c3ccccc3)c3ccccc23)no1
viability (%): 88.1
--
compound: C=C(C)Cn1c(NCCC)nc2c1c(=O)n(C)c(=O)n2C
viability (%): 98
--
compound: O=S(=O)(Cc1ccccc1)N1CCn2c(nc3ccccc32)C1
viability (%): 103

viability in this record for `Cc1ccc(-c2nnc3n2N=C(c2ccc(Br)cc2)CS3)cc1` : 102

viability in this record for `CCOC(=O)N1CCN(S(=O)(=O)c2cccc3nonc23)CC1` : 90.5

viability in this record for O=C(C1CCCN1S(=O)(=O)c1cccc2cccnc12)N1CCc2ccccc2C1 (stereo unspecified) : 92.3

viability in this record for `COC(=O)C1=CN(C(C)C)C=C(C(=O)OC)C1c1cccc(OC)c1` : 73.8

viability in this record for Cc1ccc(O)c(C2=NOC(O)(C(F)(F)C(F)F)C2)c1 (stereo unspecified) : 93.4

viability in this record for `COc1ccc(N2CCN(C(=O)c3ccc(CS(=O)(=O)c4ccc(OC)cc4)o3)CC2)cc1` : 92.1

viability in this record for CCN=C1SC(CC(=O)NC(N)=O)C(=O)N1CC (stereo unspecified) : 101

viability in this record for `Cc1cccc(-n2ncc3c(N4CCOCC4)ncnc32)c1` : 101

viability in this record for CCOCCCNC(=O)C(NC(=O)CNC(C)=O)c1ccc(Cl)cc1 (stereo unspecified) : 102

viability in this record for `O=C(CSc1nc(-c2ccco2)cc(C(F)(F)F)n1)NC1CCCC1` : 89.3

viability in this record for Cc1ccc2oc3c(c(=O)c2c1)C(c1ccc(F)cc1)N(CCCN1CCOCC1)C3=O (stereo unspecified) : 91
